The reported numbers originate from ChEMBL document CHEMBL3352021.

system: Human immunodeficiency virus; assay: Antiviral activity against HIV infected in PBMC; format: functional, organism-based; conditions: Human immunodeficiency virus 1
Please respond with reported IC50 for every item in the list.
Give bare numbers, in nM.

Here's what some known entries look like.
COCCNC(=O)c1c(O)c2ncc(Cc3ccc(F)cc3)cc2n(CC(=O)N(C)C)c1=O 4.3
CNC(=O)c1c(O)c2ncc(Cc3ccc(F)cc3)cc2n(CC(=O)N(C)C)c1=O 4.2

# IC50 lookup, item `CNC(=O)Cn1c(=O)c(C(=O)NCCOC)c(O)c2ncc(Cc3ccc(F)cc3)cc21`
2.3

---

tested on: Human immunodeficiency virus; assay: Antiviral activity against pseudotyped HIV by luciferase reporter gene assay; format: functional, organism-based; conditions: Human immunodeficiency virus 1
Labelling: IC50 reported below 3 nM becomes 1; at or above becomes -1.

Field: example entries. Status: answers known.
CNC(=O)c1c(O)c2ncc(Cc3ccc(F)cc3)cc2n(CC(=O)N(C)C)c1=O -1
CNC(=O)c1c(O)c2ncc(Cc3ccc(F)cc3)cc2n(CC(=O)NOC)c1=O -1
C[C@H](CO)NC(=O)c1c(O)c2ncc(Cc3ccc(F)cc3)cc2n(CC(=O)N(C)C)c1=O -1
COCCNC(=O)c1c(O)c2ncc(Cc3ccc(F)cc3)cc2n(CC(=O)NC(C)C)c1=O -1

Dear reviewer, please state whether `CNC(=O)c1c(O)c2ncc(Cc3ccc(F)cc3)cc2n(CC(=O)NCC(F)(F)F)c1=O` has IC50 strictly beneath 3 nM.
1

Dear reviewer, please state whether `COCCNC(=O)c1c(O)c2ncc(Cc3ccc(F)cc3)cc2n(CC(=O)NCCN(C)C)c1=O` has IC50 strictly beneath 3 nM.
-1

Dear reviewer, please state whether `CNC(=O)c1c(O)c2ncc(Cc3ccc(F)cc3)cc2n(CC(=O)NCCOC)c1=O` has IC50 strictly beneath 3 nM.
-1

Dear reviewer, please state whether `CN(C)C(=O)Cn1c(=O)c(C(=O)NC2(CO)CCCC2)c(O)c2ncc(Cc3ccc(F)cc3)cc21` has IC50 strictly beneath 3 nM.
-1

Dear reviewer, please state whether `COCCNC(=O)c1c(O)c2ncc(Cc3ccc(F)cc3)cc2n(CC(=O)NC2CCC2)c1=O` has IC50 strictly beneath 3 nM.
-1

Dear reviewer, please state whether `CNC(=O)c1c(O)c2ncc(Cc3ccc(F)cc3)cc2n(CC(N)=O)c1=O` has IC50 strictly beneath 3 nM.
1
